target: 50S ribosome; test: SPR binding studies; design: species or system S. aureus; conditions: 4 °C, PBST pH 7.4, KD = Kd/Ka, read-out: KD (equilibrium dissociation constant)
pKd: −log10 of the molar value.
Please use true (1) whenever pKd is not below 5, and false (0) whenever it is.

Examples from the recorded data:
| compound | category.label |
| --- | --- |
| C=C[C@]1(C)C[C@@H](OC(=O)CSCCN(CC)CC)[C@]2(C)[C@H](C)CC[C@]3(CCC(=O)[C@H]32)[C@@H](C)[C@@H]1O [Tiamulin, tiamulin, reference compound] | true (1) |
| C=C[C@]1(C)C[C@@H](OC(=O)Cn2cc(CN3CCN(c4ccccc4F)CC3)nn2)[C@]2(C)[C@H](C)CC[C@]3(CCC(=O)[C@H]32)[C@@H](C)[C@@H]1O [Compound 53] | false (0) |
| C=C[C@]1(C)C[C@@H](OC(=O)Cn2cc(CN3CCN(c4ccccc4C)CC3)nn2)[C@]2(C)[C@H](C)CC[C@]3(CCC(=O)[C@H]32)[C@@H](C)[C@@H]1O [Compound 50] | true (1) |
| C=C[C@]1(C)C[C@@H](OC(=O)Cn2cc(CN3CCN(c4ccccc4[N+](=O)[O-])CC3)nn2)[C@]2(C)[C@H](C)CC[C@]3(CCC(=O)[C@H]32)[C@@H](C)[C@@H]1O [Compound 62] | false (0) |
| C=C[C@]1(C)C[C@@H](OC(=O)Cn2cc(CN3CCN(c4ccc([N+](=O)[O-])cc4)CC3)nn2)[C@]2(C)[C@H](C)CC[C@]3(CCC(=O)[C@H]32)[C@@H](C)[C@@H]1O [Compound 64] | true (1) |

Q: hey, is pKd for this one >= 5? C=C[C@]1(C)C[C@@H](OC(=O)Cn2cc(CN3CCN(c4cccc([N+](=O)[O-])c4)CC3)nn2)[C@]2(C)[C@H](C)CC[C@]3(CCC(=O)[C@H]32)[C@@H](C)[C@@H]1O [Compound 63]
Result: true (1)
